assay: AP1 Signaling Pathway (AID 357); details: ME-180 (cervical carcinoma) AP-1-bla reporter, EGF-induced, beta-lactamase ratio, 5 h; at 7.69 µM (top of the series) unless noted;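 further: ME-180 reporter cells stimulated with EGF at its EC50 level; on the % scale 0 is the no-effect control and ±100 the full control effect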
Inconclusive results are not listed.

| smiles.entry | result.unit | activity change, negative = inhibition |
| --- | --- | --- |
| O=c1c(-c2cc(F)cc(F)c2)nc2cncnc2n1Cc1ccc(F)cc1 | % | -2.14 |
| COc1ccc2[nH]cc(CCNc3cc(-c4ccccc4Cl)ncn3)c2c1 | % | 0.747 |
| O=c1c(-c2ccc(F)c(F)c2)nc2cncnc2n1-c1ccccc1 | % | -19.9 |
| Cc1noc(C)c1C(=O)N1CCC[C@@]2(CCN(C(c3ccccc3)c3ccccc3)C2)C1 | % | -7.96 |
| O=C(c1cnccn1)N1CCC2(CCCN(c3ncccn3)C2)CC1 | % | -8.6 |
| COc1cccc(Nc2ncc3nc(-c4cccs4)c(=O)n(-c4ccccc4)c3n2)c1 | % | -24.2 |
| COc1ccc(CNc2ncnc3ccc(-c4ccc(C(=O)N(C)C)cc4)cc23)c(OC)c1 | % | -13.6 |
| CC(=O)N1CCC2(CC1)CCN(c1ccccc1)CC2 | % | 16.1 |
| COc1ccccc1CNc1ncncc1-c1ccccc1OC | % | -8.41 |
| CN(C)c1ccc(-c2cncnc2NCc2cccnc2)cc1 | % | -12.4 |
| O=C(c1ccncc1)N1CCC[C@@]2(CCN(c3ccccc3)C2)C1 | % | -9.5 |
| COc1ccc(C(=O)N2CCC3(CC2)CCN(c2ccccc2)CC3)cc1 | % | -11.8 |
| c1ccc(CNc2ccnc(-c3cccnc3)n2)cc1 | % | -10.3 |
| O=C(Nc1ccccc1)N1CCCC2(CCN(C(=O)c3cccc(F)c3)CC2)C1 | % | -6.89 |
| N#Cc1ccc(CN2CC[C@@]3(CCCN(C(=O)c4cc(C(F)(F)F)cc(C(F)(F)F)c4)C3)C2)cc1 | % | 17.7 |
| CC(C)(S)[C@H](N)C(=O)O | % | 1.59 |
| Cc1cnc(CNc2cc(-c3ccccc3C(F)(F)F)ncn2)cn1 | % | 3.5 |
| N#Cc1ccc(CN2CC[C@@]3(CCCN(C(=O)c4cccc(F)c4)C3)C2)cc1 | % | -24.8 |
| O=C(c1ccncc1)N1CCC2(CCN(Cc3nccs3)CC2)CC1 | % | 6.32 |
| COc1ccc(-c2nc3cnc(N(C)C)nc3n(CCC#N)c2=O)cc1 | % | -7.19 |
| O=C(Oc1ccccc1)N1CCC2(CC1)CN(c1ncccn1)C2 | % | -11.2 |
| O=C(c1cnccn1)N1CCC2(CC1)CN(Cc1ccccc1)C2 | % | -15.8 |
| CNc1nc(-c2cccc(C#N)c2)nc2ccccc12 | % | -15.2 |

* * *

biological target: Dual specificity protein kinase CLK4 (Homo sapiens); experiment: qHTS Assay for Inhibitors of CDC-like Kinase 4 (Kinase-Glo Assay) (AID 1770); settings: recombinant Clk4, Kinase-Glo ATP depletion luminescence; series mostly up to 66.7 µM; further: nearly all actives have a fitted effect of over 65% in size
Inconclusive results are not listed. Activity calls are given as the source filed them. Calls come from the whole dose curve; as a rule, active = well fitted inhibition curve with a large enough effect; inconclusive = small, poorly fitted or top-dose-only effect; inactive = flat fitted curve, though single readings scatter.
Outcomes: active, inactive

| smiles.entry | class.assignment |
| --- | --- |
| Cc1cccc(CNc2ccnc(-c3cccc(C#N)c3)n2)c1 | active |
| Cc1nc2cncnc2n(Cc2ccccc2Cl)c1=O | inactive |
| COc1ccc2[nH]cc(CCNc3ncnc4ccc(-c5c(C)noc5C)cc34)c2c1 | active |
| c1ccc(CNc2ncnc3ccc(-c4ccc5c(c4)OCO5)cc23)cc1 | active |
| COc1ccc(-c2nc3cnc(N4CCN(C)CC4)nc3n(C)c2=O)cc1 | inactive |
| COc1ccccc1-c1nc(N(C)C)c2ccccc2n1 | inactive |
| Clc1ccccc1-c1cncnc1NCCN1CCOCC1 | inactive |
| Cc1ccccc1-c1cncnc1NCc1cccnc1 | inactive |
| COc1ccc(CNc2ccnc(-c3ccccc3OC)n2)c(OC)c1 | inactive |
| COc1ncc2nc(C)c(=O)n(Cc3ccc(F)cc3)c2n1 | inactive |
| CN1CCN(c2ncc3nc(-c4cccc(C#N)c4)c(=O)n(C[C@H]4CCCO4)c3n2)CC1 | inactive |

* * *

test system: CP297; experiment: qHTS profiling for inhibitors of Plasmodium falciparum proliferation (AID 504749);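 further: 0% = DMSO vehicle and full inhibition = artemisinin control; nearly all actives have a fitted effect of over 60% in size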; settings: P. falciparum in erythrocytes, SYBR Green DNA, 72 h; series mostly up to 12.8 µM
Records with an inconclusive call do not appear. Activity calls are given as the source filed them. Calls follow the shape of the dose curve; as a rule, active = well fitted inhibition curve with a large enough effect; inconclusive = small, poorly fitted or top-dose-only effect; inactive = flat fitted curve, though single readings scatter.

| smiles.entry | outcome |
| --- | --- |
| CCn1cc(C(=O)O)c(=O)c2cc(F)c(N3CCN[C@@H](C)C3)c(F)c21 | inactive |
| NC(=O)OC[C@H](O)COc1ccc(Cl)cc1 | inactive |
| C[C@@H](CCc1ccccc1)NC[C@H](O)c1ccc(O)c(C(N)=O)c1 | inactive |
| CC[C@H](NC(C)C)[C@H](O)c1ccc(O)c(O)c1 | inactive |
| CO[C@H]1C[C@@H](O[C@@H]2[C@H](C)[C@H](O[C@@H]3O[C@@H](C)C[C@@H](N(C)C)[C@@H]3O)[C@H](C)C[C@]3(CO3)C(=O)[C@H](C)[C@H](O)[C@H](C)[C@H](C)OC(=O)[C@@H]2C)O[C@@H](C)[C@H]1O | inactive |
| C[n+]1ccccc1/C=N\O | inactive |
| CN[C@@H](CC(C)C)C(=O)N[C@@H]1C(=O)N[C@H](CC(N)=O)C(=O)N[C@@H]2C(=O)N[C@H]3C(=O)N[C@H](C(=O)N[C@H](C(=O)O)c4cc(O)cc(O)c4-c4cc3ccc4O)[C@H](O)c3ccc(c(Cl)c3)Oc3cc2cc(c3O[C@H]2O[C@@H](CO)[C@@H](O)[C@@H](O)[C@@H]2O[C@@H]2C[C@](C)(N)[C@H](O)[C@H](C)O2)Oc2ccc(cc2Cl)[C@@H]1O | inactive |
| CCCN[C@@H](C)C(=O)Nc1c(C)csc1C(=O)OC | inactive |

* * *

experiment: NFAT Signaling Pathway (AID 444); details: Jurkat NFAT-bla M1, carbachol, beta-lactamase ratio, 5 h; at 7.69 µM (top of the series) unless noted;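 further: carbachol stimulus at about its EC50 of 1 µM final; on the % scale 0 is the no-effect control and ±100 the full control effect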
Results filed as inconclusive are left out. Active and inactive are the calls of the source. The call rests on the fitted dose curve; in most records, active means well fitted curve in either direction with a large enough effect (not every such curve was filed as active); inconclusive means small, poorly fitted or top-dose-only effect, or another doubt; inactive means flat fitted curve, though single readings scatter.

| smiles.entry | activity change, negative = inhibition |
| --- | --- |
| COc1ccccc1CNc1ncncc1-c1ccccc1CN(C)C | -25.5% (inactive) |
| COc1ccc(C(=O)N2CCC3(CCN(C(=O)Nc4ccccc4)CC3)CC2)cc1 | 6.48% (inactive) |
| COCCn1c(=O)c(-c2ccc(OC)cc2)nc2cnc(Oc3ccc(OC)cc3)nc21 | 18% (inactive) |
| Cc1ccccc1-c1nccc(NCc2cccnc2)n1 | 3.23% (inactive) |
| O=C(Oc1ccccc1)N1CCC2(CCCN(c3ncccn3)C2)CC1 | -6.42% (inactive) |
| COc1ccc2[nH]cc(CCNc3ncnc4ccc(-c5ccccc5CN(C)C)cc34)c2c1 | -18.9% (inactive) |
| COc1ccc(CNc2cc(-c3ccccc3C)ncn2)c(OC)c1 | -16.6% (inactive) |
| Cn1cccc1C(=O)N1CCC2(CCCN(c3ccc(-c4ccccc4)cc3)C2)CC1 | -14.9% (inactive) |
| COc1ncc2nc(-c3cccs3)c(=O)n(Cc3ccc(F)cc3)c2n1 | 8.73% (inactive) |
| O=C(O)[C@H]1CCCN(CCC=C(c2ccccc2)c2ccccc2)C1 | -15.6% [at 38 µM] (inactive) |
| COc1cccc(Cn2c(=O)c(-c3cc(F)cc(F)c3)nc3cncnc32)c1 | 0.731% (inactive) |

* * *

target: Dual specificity protein kinase CLK4 (Homo sapiens); assay: qHTS Assay for Inhibitors of CDC-like Kinase 4 (Kinase-Glo Assay) (AID 1770); conditions: recombinant Clk4, Kinase-Glo ATP depletion luminescence; series mostly up to 66.7 µM; further: nearly all actives have a fitted effect of over 65% in size
Results filed as inconclusive are left out. Activity calls are given as the source filed them. Calls come from the whole dose curve; as a rule, active = well fitted inhibition curve with a large enough effect; inconclusive = small, poorly fitted or top-dose-only effect; inactive = flat fitted curve, though single readings scatter.
Outcomes: t = active, f = inactive

| smiles.entry | target.system | class.assignment |
| --- | --- | --- |
| Cn1c(=O)c(-c2cc(F)cc(F)c2)nc2cnc(Nc3ccccc3)nc21 | Dual specificity protein kinase CLK4 (Homo sapiens) | f |
| CCNc1ncc2nc(-c3ccc(Cl)cc3)c(=O)n(C)c2n1 | Dual specificity protein kinase CLK4 (Homo sapiens) | f |
| COc1cccc(Cn2c(=O)c(-c3ccccc3)nc3cnc(OC)nc32)c1 | Dual specificity protein kinase CLK4 (Homo sapiens) | f |
| COc1ccc(CNc2ccnc(-c3ccc(N(C)C)cc3)n2)c(OC)c1 | Dual specificity protein kinase CLK4 (Homo sapiens) | f |
| CN1CCN(c2ncc3nc(-c4cccs4)c(=O)n(Cc4cccs4)c3n2)CC1 | Dual specificity protein kinase CLK4 (Homo sapiens) | f |
| Cn1c(=O)c(-c2ccc(F)cc2)nc2cnc(OCc3ccccc3)nc21 | Dual specificity protein kinase CLK4 (Homo sapiens) | f |
| O=c1c(-c2ccc(F)cc2)nc2cncnc2n1Cc1ccc(F)cc1 | Dual specificity protein kinase CLK4 (Homo sapiens) | f |
| CN1CCN(c2ncnc3ccc(-c4cccc(NS(C)(=O)=O)c4)cc23)CC1 | Dual specificity protein kinase CLK4 (Homo sapiens) | t |
| CCNc1ncc2nc(-c3ccc(F)cc3)c(=O)n(-c3ccccc3)c2n1 | Dual specificity protein kinase CLK4 (Homo sapiens) | f |
| COc1ccccc1CNc1cc(-c2ccc(C(=O)N(C)C)cc2)ncn1 | Dual specificity protein kinase CLK4 (Homo sapiens) | t |
| COCCn1c(=O)c(-c2cccs2)nc2cncnc21 | Dual specificity protein kinase CLK4 (Homo sapiens) | f |
| CCNc1ncc2nc(-c3cccs3)c(=O)n(Cc3cccc(OC)c3)c2n1 | Dual specificity protein kinase CLK4 (Homo sapiens) | f |
| COc1ccc(-c2nc3cnc(OC)nc3n(-c3ccc(OC)cc3)c2=O)cc1 | Dual specificity protein kinase CLK4 (Homo sapiens) | f |
| Cc1nc2cnc(Oc3ccccc3)nc2n(C2CC2)c1=O | Dual specificity protein kinase CLK4 (Homo sapiens) | f |
| c1cc(NC2CC2)nc(-c2ccoc2)n1 | Dual specificity protein kinase CLK4 (Homo sapiens) | f |
| COc1ccc(-c2nc3cnc(OC)nc3n(CCc3ccccc3)c2=O)cc1 | Dual specificity protein kinase CLK4 (Homo sapiens) | f |
| COc1ccc2[nH]cc(CCNc3ccnc(-c4cccnc4)n3)c2c1 | Dual specificity protein kinase CLK4 (Homo sapiens) | t |
| COc1ccc(-c2nc3cnc(N4CCOCC4)nc3n(Cc3cccc(OC)c3)c2=O)cc1 | Dual specificity protein kinase CLK4 (Homo sapiens) | f |
| CN1CCN(c2ncnc3ccc(-c4ccoc4)cc23)CC1 | Dual specificity protein kinase CLK4 (Homo sapiens) | t |
| Cc1ccccc1-c1ccc2ncnc(N(C)Cc3ccco3)c2c1 | Dual specificity protein kinase CLK4 (Homo sapiens) | t |
| CN(C)C(=O)c1ccc(-c2nc(-n3ccnc3)c3ccccc3n2)cc1 | Dual specificity protein kinase CLK4 (Homo sapiens) | f |
| COc1cccc(Cn2c(=O)c(-c3cc(F)cc(F)c3)nc3cncnc32)c1 | Dual specificity protein kinase CLK4 (Homo sapiens) | f |
| Cc1noc(C)c1-c1cncnc1Nc1ccccc1 | Dual specificity protein kinase CLK4 (Homo sapiens) | f |
